# key: entry, value: viability, T/C
Test system: A375 multi-cell spheroids with HUVEC/MSC, viability
Assay notes: Anticancer human tumor A375 cell line growth inhibition [GQUAD];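 also: spheroids exposed to compounds for seven days before readout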
Condition details: second compound 10 µM; first compound 0.00999 µM; stronger effect = lower value
Text: DNA G-quadruplex Stabilizer Agents in Combinations in Complex Spheroids A high-throughput screen of multi-cell type tumor spheroids was designed to identify active combinations of DNA G-quadruplex stabilizer agents and targeted small molecules. […] Compounds. […] If the clinical Cmax for an agent had not been determined, the highest concentration tested was 10 microM. […]

Compound	Measured target	Scale unit	viability, T/C
CCc1c2c(nc3ccc(O)cc13)-c1cc3c(c(=O)n1C2)COC(=O)[C@]3(O)CC + CN(C)c1ccc(Nc2c3ccc(NC(=O)CCN4CCCC4)cc3nc3cc(NC(=O)CCN4CCCC4)ccc23)cc1	A375 multi-cell spheroids with HUVEC/MSC, viability	%	10.9
Cc1[nH]c2ccccc2c1CCNCc1ccc(/C=C/C(=O)NO)cc1 + Cc1[nH]c2ccc(F)cc2c1-c1nc2c3cccnc3c3ncccc3c2[nH]1	A375 multi-cell spheroids with HUVEC/MSC, viability	%	98.3
Cn1ncnc1[C@H]1c2n[nH]c(=O)c3cc(F)cc(c23)N[C@@H]1c1ccc(F)cc1 + CN(C)c1ccc(Nc2c3ccc(NC(=O)CCN4CCCC4)cc3nc3cc(NC(=O)CCN4CCCC4)ccc23)cc1	A375 multi-cell spheroids with HUVEC/MSC, viability	%	97.1
Cn1ncnc1[C@H]1c2n[nH]c(=O)c3cc(F)cc(c23)N[C@@H]1c1ccc(F)cc1 + Cc1[nH]c2ccc(F)cc2c1-c1nc2c3cccnc3c3ncccc3c2[nH]1	A375 multi-cell spheroids with HUVEC/MSC, viability	%	112
CC[C@@]1(O)C(=O)OCc2c1cc1n(c2=O)Cc2cc3c(CN(C)C)c(O)ccc3nc2-1 + Cc1[nH]c2ccc(F)cc2c1-c1nc2c3cccnc3c3ncccc3c2[nH]1	A375 multi-cell spheroids with HUVEC/MSC, viability	%	105
CC[C@@]1(O)C(=O)OCc2c1cc1n(c2=O)Cc2cc3c(CN(C)C)c(O)ccc3nc2-1 + Cc1cnc(CNC(=O)c2c(=O)c3ccc(N4CCCN(C)CC4)nc3n3c2sc2ccccc23)cn1	A375 multi-cell spheroids with HUVEC/MSC, viability	%	30.8
